The reported numbers originate from PubChem BioAssay.

Test system: glycogen synthase kinase-3 (GSK3A per assay name; protocol says GSK3B)
assay.text: GSK3 binders on small-molecule microarrays, primary screen, biochemical, small-molecule microarray, 635 nm fluorescence, GSK3A (AID 1103); further: the record names both GSK3A and GSK3B
condition.summary: small-molecule microarray binding, fluorescence 635 nm; higher = more signal
readout: composite z-score
Please state the value as a number alone, without comment.

compound	composite z-score
C=C[C@@H](C)[C@H](OC(=O)Nc1ccc(SC)cc1)c1ccc(OCCO)cc1	-1.14

Short answer for COC(=O)[C@@]1(Cc2ccc(F)cc2)[C@H]2c3cc(C(=O)N4CCCC4)n(CCF)c3C[C@H]2CN1C(=O)c1ccccc1 : composite z-score was 0.306

Short answer for Cc1ccc(S[C@]2(C(=O)NCCN3CCOCC3)CC(=O)N(Cc3ccccc3C(F)(F)F)[C@@H]2c2ccc(CO)cc2I)cc1 : composite z-score was -0.728

Short answer for C=C1C2CC3C(=C4C(CO[C@@H]4[C@H]4CCCN4S(=O)(=O)c4ccccc4[N+](=O)[O-])C4C(=O)N(C)C(=O)C34)CC2C(=O)N1C (some centres not stated) : composite z-score was 0.0168

Short answer for C[C@]1(C(=O)O)c2ccccc2C(=O)N(Cc2ccccc2)[C@H]1c1ccc(CO)cc1 : composite z-score was -1.83

Short answer for C[C@]1(C(=O)NCCN2CCOCC2)c2ccccc2C(=O)N(Cc2ccc(OC(F)(F)F)cc2)[C@H]1c1ccc(CO)cc1 : composite z-score was -0.254

Short answer for CO[C@H]1O[C@H](CO)[C@@H](OC(=O)Nc2ccc(C(F)(F)F)cc2)[C@H](OC(=O)Nc2ccc3c(c2)OCO3)[C@H]1OC(=O)Nc1ccc2c(c1)OCO2 : composite z-score was 1.28

* * *

subject.of.test: Concanavalin-A (Canavalia ensiformis) (UniProt P02866)
Sequence (P02866 whole entry, looked up): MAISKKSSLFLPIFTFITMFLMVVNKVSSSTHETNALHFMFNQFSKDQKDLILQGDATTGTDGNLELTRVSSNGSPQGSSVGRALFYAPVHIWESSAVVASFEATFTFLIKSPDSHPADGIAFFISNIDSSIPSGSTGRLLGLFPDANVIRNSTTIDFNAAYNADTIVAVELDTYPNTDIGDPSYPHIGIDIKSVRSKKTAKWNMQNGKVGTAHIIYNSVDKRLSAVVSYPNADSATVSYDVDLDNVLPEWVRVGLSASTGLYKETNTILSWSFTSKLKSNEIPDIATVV
assay.text: ConA small-molecule binders, primary screen, artefact control for SMM control protein annotation, biochemical, small-molecule microarray, Alexa647 label, 635 nm (AID 1127);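 further: z combines 667 nm emission intensity with signal-to-noise across three replicate slides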
condition.summary: ConA-A647 binding fluorescence, higher = more signal
Assign satisfied to entries whose composite z-score meets or exceeds 0.5; assign not satisfied to the rest.

Request: Does the molecule C=CC[C@]1(C(=O)N(C)C)N=C(c2ccc(OCCCO)cc2)O[C@H]1c1ccccc1N=[N+]=[N-] have recorded composite z-score that is 0.5 or more?
Response: satisfied

Request: Does the molecule C=CCOC(=O)[C@@H]1[C@H]2C(=O)O[C@H](c3ccccc3)[C@H](c3ccccc3)N2[C@H](c2ccc(OCCOC(=O)[C@H]3C[C@H]4C(=O)N[C@@H](CCCCN(C)C)C(=O)N4[C@H]3c3cccc(OCCO)c3)cc2)[C@@]12C(=O)Nc1ccc(I)cc12 have recorded composite z-score that is 0.5 or more?
Response: satisfied

Request: Does the molecule NCCCCCCNC(=O)[C@@H]1C[C@@H]2C(=O)N3CCC[C@H]3C(=O)N2[C@@H]1c1ccc(O)cc1 have recorded composite z-score that is 0.5 or more?
Response: satisfied

Request: Does the molecule COC(=O)[C@@]1(Cc2ccccc2)[C@H]2c3cc(C(=O)N4CCCC4)n(Cc4ccsc4Br)c3C[C@H]2CN1C(=O)c1ccccc1 have recorded composite z-score that is 0.5 or more?
Response: satisfied

Request: Does the molecule COc1ccc([Si](C)(C)[C@H]2[C@H](CCn3cc([C@H](O)c4ccccc4)nn3)O[C@@]3(C(=O)N(Cc4cccc(N5C(=O)c6cccc7cccc5c67)c4)c4ccccc43)[C@@H]2C)cc1 have recorded composite z-score that is 0.5 or more?
Response: not satisfied

Request: Does the molecule C=C(C(=O)CC[C@H](OC(=O)c1cccnc1)c1cccc(OCCO)c1)C(C)C have recorded composite z-score that is 0.5 or more?
Response: not satisfied

Request: Does the molecule C=CCC(OC(C)=O)[C@@H]1[C@@H](N(Cc2cc3ccccc3o2)C(=O)Cc2ccc(F)cc2)c2cc(OCCCO)ccc2N1C(=O)c1ccc2ccccc2n1 (stereo partly drawn) have recorded composite z-score that is 0.5 or more?
Response: not satisfied

Request: Does the molecule COC(=O)[C@@]1(Cc2ccc(F)cc2)[C@H]2c3cc(C(=O)N4CCCC4)n(CCF)c3C[C@H]2CN1C(=O)c1ccccc1 have recorded composite z-score that is 0.5 or more?
Response: satisfied

* * *

assay.text: binders of probe aFGF2 on microarray, primary screen, stem cell growth factor project, biochemical, small-molecule microarray, fluorescence 635/667 (AID 1067);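 further: measures binding of biotinylated aFGF2 protein to printed compounds on slides; z-score merges feature fluorescence and signal-to-noise across triplicate slides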
condition.summary: higher = more signal
Attribute: composite z-score
Please state the value as a number alone, without comment.

compound	recorded.measurement
C=C(CCCC)C(=O)CC[C@@H](OC(=O)c1ccccc1-c1ccccc1C(=O)O)c1cccc(OCCO)c1	-0.129
CC(C)OC(=O)CC(=O)CC(O)c1cccc(C#N)c1 (configuration not stated)	-0.0103
Cc1c(NC(=O)/C(C#N)=C/C=C/c2ccccc2[N+](=O)[O-])c(=O)n(-c2ccccc2)n1C	0.0415
O=c1cccc(-c2cccc(Cl)c2)o1	-0.0937
CN1C(=O)C2C(C1=O)C1C=C(c3ccc(CO)cc3)C2C(c2cccs2)N1Cc1cccc(OC(F)(F)F)c1 (configuration not stated)	-0.109
CC(C)(C)OC(=O)CC[C@]1(C(=O)NCCN2CCOCC2)N=C(c2ccc(OCCCO)cc2)O[C@H]1c1ccccc1	-0.0939
CC=CC(O)C1C=CC2C(=O)N(C)C(=O)C2N1Nc1ccc([N+](=O)[O-])cc1[N+](=O)[O-] (configuration not stated)	-0.185
CCCc1cccc(=O)o1	-0.112

Short answer for [N-]=[N+]=Nc1ccccc1[C@@H]1OC(c2ccc(OCCCO)cc2)=N[C@]1(CCS(=O)(=O)c1ccccc1)C(=O)NCCN1CCOCC1 : composite z-score was 0.0315

Short answer for CCOC(=O)C[C@H]1[C@H](OC(=O)c2ccc(-c3ccccc3)cc2)[C@@H](NC(=O)C2CCCCC2)c2cc(OCCCO)ccc2N1C(=O)c1ccccc1 : composite z-score was -0.0344

Short answer for CCOC(=O)C[C@H]1[C@H](OC(=O)c2ccc(-c3ccccc3)cc2)[C@@H](NC(=O)c2ccc3ccccc3c2)c2cc(OCCCO)ccc2N1C(=O)c1ccc2ccccc2n1 : composite z-score was -0.06

Short answer for COc1c(C)cc(-c2cc3c(c(Cc4ccccc4)n2)[Si](C(C)C)(C(C)C)OC3)cc1C : composite z-score was -0.0448

* * *

assay.text: binders from COS7 lysate, DM2A8 probe, primary screen, torsin A project, cell lysate, small-molecule microarray, fluorescence 635/667 (AID 1065)
condition.summary: higher = more signal, COS7 lysate expressing mutant human TOR1A
Assign TRUE to entries whose composite z-score meets or exceeds 0.3; assign FALSE to the rest.

Consider the worked cases shown below.
compound	category
NC(=O)N1C(=O)C2C(C1=O)C1C=C(CCCO)C2C(c2cccs2)N1Cc1cc2c(cc1Br)OCO2 (configuration not stated)	TRUE
COCCOC(=O)N1C(=O)[C@@]2(c3cc(C#CC4(O)CCCCCC4)ccc31)[C@H](C(N)=O)[C@H]1C(=O)O[C@H](c3ccccc3)[C@H](c3ccccc3)N1[C@@H]2c1ccc(O)cc1	TRUE
C=CCN1C(=O)[C@]2(CC=C)N=C(c3ccc(OCCCO)cc3)O[C@@H]2c2ccccc21	FALSE
CC=CC(O)C1C=CC2C(=O)N(C)C(=O)C2N1N1CCCCC1 (configuration not stated)	TRUE
COCCOC(=O)N1C(=O)[C@@]2(c3cc(C#CC4(O)CCCCCC4)ccc31)[C@H](C(N)=O)[C@H]1C(=O)O[C@H](c3ccccc3)[C@H](c3ccccc3)N1[C@@H]2c1ccccc1OCCO	TRUE

Attention now turns to another entry.
Request: Does the compound COC(=O)c1c(CC[C@@H](CO)NC(=O)N[C@H](Cn2cc(-c3ccccc3C)nn2)C(C)C)oc(C(C)=O)c1C(=O)OC have recorded composite z-score that is 0.3 or more?
Response: FALSE

* * *

assay.text: yeast growth modulation, basal conditions, primary screen, YJM789 clinical isolate, OD600, 24 h (AID 1089);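 further: growth of clinical yeast isolate S. cerevisiae YJM 789 seeded 1000 cells per well; test concentration not given here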
condition.summary: S. cerevisiae YJM789 growth, higher = more signal, called active from +8 up or from −8 down
readout: z-score
Please state the value as a number alone, without comment.

Record excerpt, results attached:
structure.as.smiles	z-score
C=CC[C@@]1(C(=O)N2CCCCC2)N=C(c2ccc(OCCCO)cc2)O[C@@H]1c1ccccc1	-2.83
NC(=O)NCC#Cc1ccc2c(c1)[C@]1(C(=O)N2)[C@H](C(=O)O)[C@H]2C(=O)O[C@H](c3ccccc3)[C@H](c3ccccc3)N2[C@@H]1c1ccccc1OCCO	-1.39
CCC[C@@H]1C[C@@]1(CCC)[C@@H](NP(=O)(c1ccccc1)c1ccccc1)c1ccc(Cl)cc1	1.2

Short answer for COC(=O)Cn1c(C(=O)N2CCCC2)cc2c1C[C@H]1CN(C(=O)c3ccccc3)[C@@](Cc3ccc(F)cc3)(C(=O)OC)[C@@H]21 : z-score was -1.98

* * *

assay.text: small-molecule binders of probe aInhba, primary screen, biochemical, small-molecule microarray, 635/667 nm fluorescence (AID 1148);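 further: score merges 667nm spot fluorescence with signal-to-noise for antibody binding to printed compounds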
condition.summary: higher = more signal
readout: composite z-score
Please state the value as a number alone, without comment.

compound	readout	recorded.measurement
COc1cc(CO)cc(I)c1O[C@H]1C=C(C(=O)NCCO)C[C@@H](N(CC2CCCCC2)C(=O)c2ccc(C(F)(F)F)cc2)[C@@H]1O	composite z-score	-0.0403
COc1ccc([Si](C)(C)[C@H]2[C@H](CCn3cc([C@H](O)c4ccccc4)nn3)O[C@@]3(C(=O)N(Cc4ccc(N5CCC5=O)cc4)c4ccccc43)[C@@H]2C)cc1	composite z-score	-0.128
C=C(CCCC)/C(=C/C[C@@H](OC(C)=O)c1ccc(CO)o1)c1cc(C(=O)OC)ccc1OC	composite z-score	-0.0405
CO[C@H]1O[C@H](CO)[C@@H](OC(=O)c2ccc(Br)cc2)[C@@H]2OC(=O)[C@@H](Cc3ccc4ccccc4c3)C/C=C/C[C@H](Cc3ccc4ccccc4c3)C(=O)O[C@@H]12	composite z-score	-0.103
C=C(CCCC)C(=O)CC[C@@H](OC(=O)c1ccccc1-c1ccccc1C(=O)O)c1cccc(OCCO)c1	composite z-score	-0.231
[N-]=[N+]=Nc1ccccc1C[C@@]1(C(=O)O)N=C(c2ccc(OCCCO)cc2)O[C@@H]1c1ccccc1	composite z-score	0.0633

Short answer for CC=CC(O)C1C=CC2C(=O)N(C)C(=O)C2N1N1CCCCC1 (configuration not stated) : composite z-score was -0.15
